Data credit: the supplement of paper PMC10567573

Reported protein stability index is given for each of the following variants.
B1: IQUB (parent)
chain: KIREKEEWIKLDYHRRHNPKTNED

- Variants of: B1
- measurement_protocol: protein stability index of a GFP-peptide fusion (GPS, HEK-293T) (PSI 1-6); higher = more stable;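 note: lentivirally expressed fusions sorted by FACS into six bins by GFP to DsRed ratio, PSI derived from sequencing read proportions per bin multiplied by bin number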
- condition_context: c terminus: a fixed tail appended
property: protein stability index

alteration: E23R
experimental_value: 3.72
--
alteration: K5Y
experimental_value: 3.92
--
alteration: L11W
experimental_value: 4.13
--
alteration: R16A
experimental_value: 4.54
--
alteration: K20G
experimental_value: 4.84
--
alteration: D24H
experimental_value: 4.04
--
alteration: R15L
experimental_value: 4.49
--
alteration: H17A
experimental_value: 4.71
--
alteration: I9V
experimental_value: 4.86
--
alteration: K20E
experimental_value: 5.2
--
alteration: Y13M
experimental_value: 4.76
--
alteration: E4P
experimental_value: 4.02
--
alteration: E4G
experimental_value: 3.85
--
alteration: I2E
experimental_value: 5.32
--
alteration: T21L
experimental_value: 4.13
--
alteration: L11N
experimental_value: 5.15
--
alteration: L11Q
experimental_value: 5.37
--
alteration: D12F
experimental_value: 4.01
--
alteration: P19D
experimental_value: 4.77
--
alteration: I9K
experimental_value: 5.13
--
alteration: E7T
experimental_value: 4.37
--
alteration: D12V
experimental_value: 3.65
--
alteration: R15S
experimental_value: 5.22
--
alteration: K20Q
experimental_value: 4.39
--
alteration: K5I
experimental_value: 2.39
--
alteration: N18T
experimental_value: 4.27
--
alteration: E7R
experimental_value: 3.51
--
alteration: K20M
experimental_value: 4.53
--
alteration: I2Y
experimental_value: 4.2
--
alteration: E23T
experimental_value: 4.54
--
alteration: K20W
experimental_value: 3.08
--
alteration: K5H
experimental_value: 4.51
--
alteration: P19I
experimental_value: 4.92
--
alteration: I9T
experimental_value: 5.1
--
alteration: H14K
experimental_value: 3.87
--
alteration: P19N
experimental_value: 5.13
--
alteration: E4M
experimental_value: 4.06
--
alteration: E6C
experimental_value: 4.35
--
alteration: K10L
experimental_value: 4.04
--
alteration: Y13E
experimental_value: 5.18
